Recorded values, source patent US20240400551A1.

# Tested on: IL-1β release from THP-1 cells
# Protocol Details: IL-1β release assay
# Assay type: cell-based
# Condition Set: Homo sapiens; PMA-treated THP-1 cells, 250 ng/mL LPS then 20 μM nigericin; cleaved IL-1β in media
Outcome Measure: IC50

What measured IC50 is associated with O=C(Nc1ccc(Oc2ccnc3[nH]cc(Cl)c23)cc1F)Nc1cc(C2CC2)nn1-c1ccccc1 on IL-1β release from THP-1 cells?
> 1000 nM
